experiment: qHTS of pediatric cancer cell lines to identify multiple opportunities for drug repurposing: Primary screen for NB1643 cells (AID 1347099); conditions: NB1643 neuroblastoma viability, CellTiter-Glo luminescence, 48 h; series mostly up to 46 µM; also: nearly all actives have a fitted effect of over 50% in size
Records with an inconclusive call do not appear. Activity calls are given as the source filed them. Calls follow the shape of the dose curve; as a rule, active = well fitted cell-killing curve with a large enough effect; inconclusive = small, poorly fitted or top-dose-only effect; inactive = no such curve, though single readings can be large or run the other way.
Pick one: 1.0 = active, 0.0 = inactive

Ask: Would you mind telling me which call this test gave COC(=O)[C@@H]1CC2=CC(=O)CC[C@]2(C)[C@@]23O[C@@H]2C[C@@]2(C)[C@@H](CC[C@@]24CCC(=O)O4)[C@H]13 ?
Reply: 0.0

Ask: Give the logged outcome of this assay for the following compound: COc1cccc(CCc2ccccc2OCC(CN(C)C)OC(=O)CCC(=O)O)c1 (centres undefined)
Reply: 0.0

Ask: Which result was noted for this compound in the test: OC(CCN1CCCCC1)(c1ccccc1)c1ccccc1
Reply: 0.0

Ask: Hi, do you know how CC1(C)OC[C@@H](COC(=O)CCc2ccc(OC[C@@H](O)CNCCNC(=O)N3CCOCC3)cc2)O1 came out in this test?
Reply: 0.0

Ask: How did this test come out for C[C@]12CC[C@@H]3c4ccc(O)cc4CC[C@H]3[C@@H]1C[C@@H](O)[C@@H]2O ?
Reply: 0.0

Ask: Entry O=C(N/N=C/c1ccccc1O)c1ccncc1 : call = ?
Reply: 1.0

Ask: Hey, what did the test say about CN(C)CCCOc1nn(Cc2ccccc2)c2ccccc12 ?
Reply: 0.0

Ask: Please indicate how the test categorized CC1(C)O[C@@H]2C[C@H]3[C@@H]4CCC5=CC(=O)CC[C@]5(C)[C@@]4(F)[C@@H](O)C[C@]3(C)[C@]2(C(=O)CCl)O1 .
Reply: 0.0

Ask: Field: outcome | Entry: CCN(CC)CCNC(=O)COc1ccc(Cl)cc1
Reply: 0.0

----------
test system: CRL-7250; test: Cytotoxic Profiling of Annotated Libraries Using Quantitative High-Throughput Screening (AID 1296008); details: Five cell lines viability, CellTiter-Glo ATP luminescence, 48-72 h; also: nearly all actives have a fitted effect of over 60% in size
Results filed as inconclusive are left out. Active and inactive are the calls of the source. Calls follow the shape of the dose curve; as a rule, active = well fitted inhibition curve with a large enough effect; inconclusive = small, poorly fitted or top-dose-only effect; inactive = flat fitted curve, though single readings scatter.
Choose the fitting class; nothing outside active, inactive is accepted.

Ask: Record request — test call for CC(=O)[C@H]1CC[C@H]2[C@@H]3C[C@H](C)C4=CC(=O)CC[C@]4(C)[C@H]3[C@@H](O)C[C@]12C
Reply: inactive

Ask: Per the records of this test, what outcome belongs to CN(C)C(=S)SC(=S)N(C)C ?
Reply: active

Ask: Per the assay record, what outcome was assigned to CCOC(=O)COc1ccc2c(C)c(CCN(CC)CC)c(=O)oc2c1Cl ?
Reply: active

Ask: Check the results log: what was the call for CCN(CCCCOC(=O)c1ccc(OC)c(OC)c1)C(C)Cc1ccc(OC)cc1 (stereo not drawn) ?
Reply: inactive

Ask: What call does the record list for CCC(C(=O)OCCN(CC)CC)c1ccccc1 (stereo not drawn) ?
Reply: inactive

Ask: Assay result, entry COC(=O)C1=C(C)NC(C)=C(C(=O)O[C@@H]2CCCN(Cc3ccccc3)C2)[C@@H]1c1cccc([N+](=O)[O-])c1 — outcome?
Reply: active

Ask: # lookup: test call for CC(=O)OCC(=O)[C@@]1(OC(C)=O)[C@@H](C)C[C@H]2[C@@H]3C[C@H](F)C4=CC(=O)C=C[C@]4(C)[C@@]3(F)[C@@H](O)C[C@@]21C
Reply: inactive

Ask: Test call, this compound: CN(C/C=C/c1ccccc1)Cc1cccc2ccccc12
Reply: active

Ask: GET /call?item= CCOc1ccc(Cc2nccc3cc(OCC)c(OCC)cc23)cc1OCC returns the recorded outcome of this test.
Reply: active

Ask: Give the logged outcome of this assay for the following compound: Cc1c(N(C)CS(=O)(=O)O)c(=O)n(-c2ccccc2)n1C
Reply: inactive

Ask: Which result was noted for this compound in the test: Cc1ccccc1C(=O)Nc1ccc(C(=O)N2CCCC(N(C)C)c3ccccc32)cc1 (stereo not drawn)
Reply: active

Ask: Per the assay record, what outcome was assigned to OC(CCN1CCCCC1)(c1ccccc1)c1ccccc1 ?
Reply: inactive

Ask: Identify the outcome logged in this assay for the compound shown: Oc1ccc(O)cc1
Reply: inactive
